# assay remarks: Toxicity liver stage against HepG2, at 10uM
# Format: cell-based
# Set-up: test concentration 10 uM, cell line HepG2-A16-CD81EGFP
# experimental context: human, HepG2-A16-CD81EGFP cells; read-out: INHIBITION
reported endpoint: cytotoxicity at 10 µM (%)
Give just the numeric value; % need not be written.

For the compound Cc1nn(C)c(C)c1C1CCCN1c1ncnc2c1CCC2 (configuration not stated) , what cytotoxicity at 10 µM is on record?
13.1

For the compound "CS(=O)(=O)CCN1C[C@H](NC(=O)c2cnc(O)cn2)[C@@H](C2CC2)C1" , what cytotoxicity at 10 µM is on record?
9.24

For the compound "Cn1cc(S(=O)(=O)NCCc2ccsc2)cn1" , what cytotoxicity at 10 µM is on record?
5.26

For the compound "O=C(CN1CCc2cncnc2C1)NC(C1CC1)C1CC1" , what cytotoxicity at 10 µM is on record?
-5.42

For the compound "CC(=O)NCc1noc2c1CN(CCN1CCCC1)CC2" , what cytotoxicity at 10 µM is on record?
-5.46

For the compound CC(C)Nc1cccc(C(=O)NCC(O)c2ccc(F)cc2F)c1 (configuration not stated) , what cytotoxicity at 10 µM is on record?
14.8

For the compound "O=C(NCCCN1CCc2ccccc2C1)c1ccccc1Cl" , what cytotoxicity at 10 µM is on record?
-13

For the compound CN(C)S(=O)(=O)N(C)C(c1cccnc1)c1ccc(F)c(F)c1 (configuration not stated) , what cytotoxicity at 10 µM is on record?
-3.53

For the compound Cc1cc(C2CCCN(C(=O)CCc3cscn3)C2)n[nH]1 (configuration not stated) , what cytotoxicity at 10 µM is on record?
-0.939

For the compound "CCOCCOc1ccc(S(=O)(=O)N2CCc3c(nc[nH]c3=O)C2)cc1" , what cytotoxicity at 10 µM is on record?
-5.85

For the compound CCn1c(C2CCCN(Cc3cc(OC)cc(OC)c3)C2)nn(C)c1=O (configuration not stated) , what cytotoxicity at 10 µM is on record?
0.0264

For the compound "Cc1nc(N2CCCC2)nc2c1CCN(C(=O)NC(C)C)CC2" , what cytotoxicity at 10 µM is on record?
2.93

* * *

# assay remarks: Toxicity liver stage against HepG2, at 10uM
# Format: cell-based
# Design: test concentration 10 uM, cell line HepG2-A16-CD81EGFP
# experimental context: human, HepG2-A16-CD81EGFP cells; read-out: INHIBITION
reported endpoint: cytotoxicity at 10 µM
Just the number plus its unit, please.

For the compound CC(Cn1cc(Br)cn1)C(=O)Nc1ccncc1 (stereo unspecified) , what cytotoxicity at 10 µM is on record?
-2.82%

For the compound N#Cc1ccc(NC(=O)N2CCCCC2CN2CCCC2=O)cc1 (stereo unspecified) , what cytotoxicity at 10 µM is on record?
4.65%

For the compound "CC(C)c1ccc(CN2C(=O)C3(CCNCC3)Nc3ccccc32)cc1" , what cytotoxicity at 10 µM is on record?
-9.81%

For the compound "Cc1ncccc1OC1(C(=O)NCCc2ccccn2)CCNCC1" , what cytotoxicity at 10 µM is on record?
1.83%

For the compound "Cc1noc(C)c1CN1CCc2ncnc(-c3ccoc3)c2CC1" , what cytotoxicity at 10 µM is on record?
-92%

For the compound CNC(=O)C1CN(Cc2cc(C)on2)CCN(C(C)=O)C1 (stereo unspecified) , what cytotoxicity at 10 µM is on record?
-3.02%

For the compound Cc1ncc(S(C)(=O)=O)c(C2CCCNC2)n1 (stereo unspecified) , what cytotoxicity at 10 µM is on record?
1.17%

For the compound "CN(C)C(=O)CN1C[C@H]2CCN(Cc3ccccc3)CC[C@H]2S1(=O)=O" , what cytotoxicity at 10 µM is on record?
9.82%

For the compound CC(=O)NC1Cc2ccc(S(=O)(=O)NCCNc3ccccn3)cc2C1 (stereo unspecified) , what cytotoxicity at 10 µM is on record?
0.126%

For the compound "COc1cccc(C(=O)Oc2cc(=O)n3cccc(C)c3n2)c1" , what cytotoxicity at 10 µM is on record?
6.36%

For the compound CCc1cc(O)nc(C2CCCN2C(=O)c2cccnc2)n1 (stereo unspecified) , what cytotoxicity at 10 µM is on record?
-1.54%
